Data provenance: paper PMC4942819

test: plasma protein binding; format: in vitro ADME; conditions: mouse, (M), read-out: Plasma protein binding (converted)
measure: fraction unbound
Reply with the value as a number alone.

Query :: Could you share which fraction unbound value was measured for "O=[N+]([O-])c1cc(C(F)(F)F)cc2c(=S)nc(N3CCC4(CC3)OCCO4)sc12" ?
Result :: 0.038

----------
target: CYP2C19 (Homo sapiens); test: CYP inhibition; format: in vitro ADME
Sequence (P33261 whole entry): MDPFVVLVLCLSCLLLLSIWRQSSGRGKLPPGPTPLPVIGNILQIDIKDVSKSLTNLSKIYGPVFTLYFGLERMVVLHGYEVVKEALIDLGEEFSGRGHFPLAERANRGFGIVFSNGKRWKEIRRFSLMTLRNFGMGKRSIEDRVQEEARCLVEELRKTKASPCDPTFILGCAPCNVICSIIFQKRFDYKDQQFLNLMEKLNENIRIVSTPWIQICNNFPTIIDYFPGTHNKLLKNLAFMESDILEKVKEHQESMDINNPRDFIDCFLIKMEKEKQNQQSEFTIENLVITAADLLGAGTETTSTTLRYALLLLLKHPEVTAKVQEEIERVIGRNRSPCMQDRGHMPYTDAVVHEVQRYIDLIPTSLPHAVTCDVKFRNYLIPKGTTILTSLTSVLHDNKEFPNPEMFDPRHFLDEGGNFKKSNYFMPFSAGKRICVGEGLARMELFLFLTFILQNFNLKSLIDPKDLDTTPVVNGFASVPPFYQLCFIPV
pIC50: −log10 of the molar value.
measure: pIC50

Query :: What pIC50 value was documented for this molecule, "O=[N+]([O-])c1cc(C(F)(F)F)cc2c(=S)nc(N3CCC4(CC3)OCCO4)sc12" ?
Result :: < 5.00
